Assayed System: EPHB1 (UniProt P54762)
Sequence (P54762 whole entry, looked up): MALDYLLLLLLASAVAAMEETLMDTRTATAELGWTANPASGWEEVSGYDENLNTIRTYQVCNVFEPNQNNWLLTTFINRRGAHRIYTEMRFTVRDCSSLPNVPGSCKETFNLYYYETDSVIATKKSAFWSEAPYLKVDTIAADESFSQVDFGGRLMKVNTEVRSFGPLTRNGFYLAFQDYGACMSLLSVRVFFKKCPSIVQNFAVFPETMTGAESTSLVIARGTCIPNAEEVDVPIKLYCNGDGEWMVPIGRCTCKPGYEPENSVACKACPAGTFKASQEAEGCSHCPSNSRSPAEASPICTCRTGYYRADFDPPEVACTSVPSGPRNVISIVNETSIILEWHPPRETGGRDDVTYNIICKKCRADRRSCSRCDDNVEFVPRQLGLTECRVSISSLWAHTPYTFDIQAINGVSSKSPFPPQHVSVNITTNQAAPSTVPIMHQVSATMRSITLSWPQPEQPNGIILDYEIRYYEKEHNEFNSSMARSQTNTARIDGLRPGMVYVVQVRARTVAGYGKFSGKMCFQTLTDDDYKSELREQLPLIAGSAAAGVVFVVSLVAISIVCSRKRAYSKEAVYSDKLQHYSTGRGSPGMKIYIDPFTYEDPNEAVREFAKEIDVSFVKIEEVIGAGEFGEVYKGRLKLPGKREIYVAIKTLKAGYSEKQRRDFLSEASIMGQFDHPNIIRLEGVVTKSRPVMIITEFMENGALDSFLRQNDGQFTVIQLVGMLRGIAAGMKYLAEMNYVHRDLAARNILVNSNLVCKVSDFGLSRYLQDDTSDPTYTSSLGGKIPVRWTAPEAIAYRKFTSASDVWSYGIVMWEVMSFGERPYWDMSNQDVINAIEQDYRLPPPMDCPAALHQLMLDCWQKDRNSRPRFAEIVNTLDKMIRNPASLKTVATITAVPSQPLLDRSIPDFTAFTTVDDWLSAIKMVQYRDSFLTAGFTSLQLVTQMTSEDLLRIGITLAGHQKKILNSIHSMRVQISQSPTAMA
Experiment Description: phosphorylation enrichment, bacterial display (enrichment ratio); higher = better substrate or ligand; peptides without Tyr show the background;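 also: 11-residue human phosphosite peptides and single-mutation variants displayed on the E. coli surface, counted by deep sequencing, each peptide's frequency after selection divided by its frequency in the unselected input library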;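 also: frequency after pTyr selection over input frequency; kinase dosed for 20-30% of maximal phosphorylation in three min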
Listed next: entries and their corresponding phosphorylation enrichment.
Please respond with just the number, no unit label.

[
  {
    "Primary Sequence": "IRTIDYRFTVS [IDS_Y497_W502S_YF]",
    "phosphorylation enrichment": 0.496
  },
  {
    "Primary Sequence": "GREEFYVHYVG [KAT8_Y90]",
    "phosphorylation enrichment": 0.583
  }
]

q: Could you share which phosphorylation enrichment value was measured for TRVMEYISRLD [CLTCL1_Y1043] ?
a: 0.35

q: Could you share which phosphorylation enrichment value was measured for HESEIYCKVCY [CSRP3_Y57] ?
a: 0.925

q: Could you share which phosphorylation enrichment value was measured for VTQEQYELYCE [CBL_Y368] ?
a: 0.814

q: Could you share which phosphorylation enrichment value was measured for FADIAYIFRHG [PAH_Y166_N167I_YF] ?
a: 0.715

q: Could you share which phosphorylation enrichment value was measured for EEGENYQKGER [CHGB_Y173] ?
a: 0.53

q: Could you share which phosphorylation enrichment value was measured for CEAIEYLESKQ [BTK_Y511_M509I] ?
a: 0.631

q: Could you share which phosphorylation enrichment value was measured for PESILYRKFTT [NTRK1_Y701] ?
a: 0.668

q: Could you share which phosphorylation enrichment value was measured for IWDLKYTIENP [SND1_Y178_R174W] ?
a: 0.593

q: Could you share which phosphorylation enrichment value was measured for QTSTDYDIRFY [CSNK2A1_Y131_L128S] ?
a: 1.22

q: Could you share which phosphorylation enrichment value was measured for SFPSTYRFERG [INPPL1_Y661_P659S_YF] ?
a: 0.345

q: Could you share which phosphorylation enrichment value was measured for GGQSVYHVHLH [HINT1_Y109] ?
a: 0.476

q: Could you share which phosphorylation enrichment value was measured for MTEEQYIKMNR [ARFGEF2_Y797_K794E] ?
a: 0.478

q: Could you share which phosphorylation enrichment value was measured for RGDCMYASLLG [AR_Y269_P271S] ?
a: 2.43

q: Could you share which phosphorylation enrichment value was measured for ASGKFYAMKIL [AKT3_Y174_YF] ?
a: 0.519

q: Could you share which phosphorylation enrichment value was measured for MYQVQYNSSVD [LRFN1_Y458] ?
a: 0.606

q: Could you share which phosphorylation enrichment value was measured for KAVLHYKHQNQ [MTOR_Y1804_E1799K] ?
a: 0.423

q: Could you share which phosphorylation enrichment value was measured for TDEYEYDELIV [TGM1_Y136] ?
a: 0.588
